system: 633275-114-R-J1-PDC complex spheroids, viability; experiment: Anticancer human tumor 633275-114-R-J1-PDC patient-derived endometrial adenocarcinoma cell line growth inhibition [GQUAD]; conditions: second compound 3.16 µM; first compound 10 µM; active means viability on the fitted dose curve at most 10% of control; inactive means the rest
// classify into active, inactive

# count of solved cases: 8
- CC1COCCN1c1cc(-c2ccnn2C)c2ccnc(-c3ccn[nH]3)c2n1 (configuration not stated) + Cc1cnc(CNC(=O)c2c(=O)c3ccc(N4CCCN(C)CC4)nc3n3c2sc2ccccc23)cn1: active
- Nc1ccn(C2OC(CO)C(O)C2(F)F)c(=O)n1 (configuration not stated) + Cc1cnc(CNC(=O)c2c(=O)c3ccc(N4CCCN(C)CC4)nc3n3c2sc2ccccc23)cn1: inactive
- Cc1cccc(N(C)C(=O)C2C(O)CCN2c2nc(C)cc(C(F)(F)F)c2C#N)c1 (configuration not stated) + CN(C)c1ccc(Nc2c3ccc(NC(=O)CCN4CCCC4)cc3nc3cc(NC(=O)CCN4CCCC4)ccc23)cc1: inactive
- Nc1ccn(C2OC(CO)C(O)C2(F)F)c(=O)n1 (configuration not stated) + CN(C)c1ccc(Nc2c3ccc(NC(=O)CCN4CCCC4)cc3nc3cc(NC(=O)CCN4CCCC4)ccc23)cc1: inactive
- C=CC(=O)N1CCN(c2nc(=O)n(-c3c(C)ccnc3C(C)C)c3nc(-c4c(O)cccc4F)c(F)cc23)C(C)C1 (configuration not stated) + Cc1cnc(CNC(=O)c2c(=O)c3ccc(N4CCCN(C)CC4)nc3n3c2sc2ccccc23)cn1: inactive
- C=CCn1c(=O)c2cnc(Nc3ccc(N4CCN(C)CC4)cc3)nc2n1-c1cccc(C(C)(C)O)n1 + Cc1cnc(CNC(=O)c2c(=O)c3ccc(N4CCCN(C)CC4)nc3n3c2sc2ccccc23)cn1: inactive
- CC1COCCN1c1cc(C2(S(C)(=N)=O)CC2)nc(-c2ccnc3[nH]ccc23)n1 (configuration not stated) + Cc1[nH]c2ccc(F)cc2c1-c1nc2c3cccnc3c3ncccc3c2[nH]1: inactive
- C=CCn1c(=O)c2cnc(Nc3ccc(N4CCN(C)CC4)cc3)nc2n1-c1cccc(C(C)(C)O)n1 + CN(C)c1ccc(Nc2c3ccc(NC(=O)CCN4CCCC4)cc3nc3cc(NC(=O)CCN4CCCC4)ccc23)cc1: inactive

Exercise: // return assay outcome for C=CC(=O)N1CCN(c2nc(=O)n(-c3c(C)ccnc3C(C)C)c3nc(-c4c(O)cccc4F)c(F)cc23)C(C)C1 (configuration not stated) + CN(C)c1ccc(Nc2c3ccc(NC(=O)CCN4CCCC4)cc3nc3cc(NC(=O)CCN4CCCC4)ccc23)cc1
Solution: inactive

Exercise: // return assay outcome for Cc1cccc(N(C)C(=O)C2C(O)CCN2c2nc(C)cc(C(F)(F)F)c2C#N)c1 (configuration not stated) + Cc1cnc(CNC(=O)c2c(=O)c3ccc(N4CCCN(C)CC4)nc3n3c2sc2ccccc23)cn1
Solution: inactive

* * *

test system: 633275-114-R-J1-PDC complex spheroids, viability; experiment: Anticancer human tumor 633275-114-R-J1-PDC cell line growth inhibition [GQUAD]; settings: second compound 10 µM; first compound 3.16 µM; stronger effect = lower value;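 further: spheroids exposed to the agents for seven days; percent of DMSO vehicle control viability which is 100%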
Result Type: viability, T/C (%)
Kindly answer with a numeric value in %, unit omitted.

- COc1cccc2c1C(=O)c1c(O)c3c(c(O)c1C2=O)CC(O)(C(=O)CO)CC3OC1CC(N)C(O)C(C)O1 (stereo not given) + CN(C)c1ccc(Nc2c3ccc(NC(=O)CCN4CCCC4)cc3nc3cc(NC(=O)CCN4CCCC4)ccc23)cc1: 0.49
- C=CC(=O)N1CCN(c2nc(=O)n(-c3c(C)ccnc3C(C)C)c3nc(-c4c(O)cccc4F)c(F)cc23)C(C)C1 (stereo not given) + Cc1cnc(CNC(=O)c2c(=O)c3ccc(N4CCCN(C)CC4)nc3n3c2sc2ccccc23)cn1: 39.7
- O=C(NO)c1cnc(N2CCN(S(=O)(=O)c3ccc4ccccc4c3)CC2)nc1 + CN(C)c1ccc(Nc2c3ccc(NC(=O)CCN4CCCC4)cc3nc3cc(NC(=O)CCN4CCCC4)ccc23)cc1: 1.21
- COc1ncnc(C2CC2)c1-c1ncc2cnn(Cc3ccc(-c4nc(C(F)(F)F)cn4C(C)C)cc3)c2n1 + Cc1cnc(CNC(=O)c2c(=O)c3ccc(N4CCCN(C)CC4)nc3n3c2sc2ccccc23)cn1: 31.9

Now for a further molecule.
Exercise: Supply recorded viability, T/C for Nc1ccn(C2OC(CO)C(O)C2(F)F)c(=O)n1 (stereo not given) + Cc1[nH]c2ccc(F)cc2c1-c1nc2c3cccnc3c3ncccc3c2[nH]1 here.
Solution: 22.5
